Catalogue of normalized RNA/DNA level without ligand (log10) readings, one per entry.
B1: library; a variant is named by its letters at N, in order (parent)
chain: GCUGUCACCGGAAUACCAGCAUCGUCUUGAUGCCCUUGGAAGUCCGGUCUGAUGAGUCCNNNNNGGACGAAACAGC

- Variants of: B1
- experimental.protocol: normalized RNA/DNA level without ligand (relative to sTRSVctl = 100) (log10 (% of sTRSVctl)); higher = less ribozyme self-cleavage, higher mRNA level
- condition: HEK293T, reporter: mCherry (pCS4076), ligand present: no
recorded.endpoint: normalized RNA/DNA level without ligand (log10)

| mutation.notation | val |
| --- | --- |
| ACUGA | 1.68 |
| AGGAG | 1.73 |
| UGAAU | 1.77 |
| UAAAC | 1.91 |
| AGCGU | 1.82 |
| AAGGG | 1.75 |
| CAUCC | 2 |
| AGGCU | 1.94 |
| CACCA | 1.8 |
| CCCUU | 1.89 |
| AGUUC | 1.89 |
| AAAAG | 1.66 |
| AGUAA | 1.35 |
| AAGAA | 1.36 |
| GAACA | 1.6 |
| UGUGC | 1.93 |
| CUGGA | 1.84 |
| AAGCA | 1.8 |
| AUAAG | 1.79 |
| UGCCA | 1.82 |
| CCCGA | 1.93 |
| UUACG | 1.93 |
| UUGUC | 2.01 |
| AACUC | 1.92 |
| UUUAA | 1.69 |
| CCCAC | 1.95 |
| UAUUC | 1.94 |
| GAAAC | 1.77 |
| UAAGA | 1.48 |
| CAUUU | 1.74 |
| CACUC | 1.98 |
| AUUCA | 1.83 |
| CAGCA | 1.52 |
| AGAGC | 1.81 |
| AUAGU | 1.76 |
| UAUCG | 2 |
| UAGUC | 1.88 |
